Assignment: determine reported pIC50 for the given molecules.
# system.under.test: KiSS-1 receptor (Homo sapiens, UniProt Q969F8)
# Sequence (Q969F8 whole entry): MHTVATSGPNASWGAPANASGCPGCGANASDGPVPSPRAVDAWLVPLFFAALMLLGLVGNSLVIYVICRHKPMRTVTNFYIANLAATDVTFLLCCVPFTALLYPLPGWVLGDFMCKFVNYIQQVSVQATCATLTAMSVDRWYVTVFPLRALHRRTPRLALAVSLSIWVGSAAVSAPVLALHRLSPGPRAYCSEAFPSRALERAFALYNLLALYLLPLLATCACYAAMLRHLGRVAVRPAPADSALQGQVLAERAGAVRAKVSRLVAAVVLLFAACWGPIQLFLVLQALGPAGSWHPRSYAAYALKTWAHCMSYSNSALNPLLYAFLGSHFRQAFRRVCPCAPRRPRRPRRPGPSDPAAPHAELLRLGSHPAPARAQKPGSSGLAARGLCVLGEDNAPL
# test.details: Displacement of [125I]metastin(40-54) from human GPR54 receptor expressed in CHO cells after 60 mins by scintillation counting
# Type: cell-based
Answers are plain numbers, as −log10 of the molar value.

Study these solved cases before continuing.
Exercise: Provide measured pIC50 value, entry: `N#Cc1c(-c2cccc(NC(=O)CCN)c2)cc(-c2ccccc2O)nc1NC(=O)c1cccs1`
Solution: 7.68

Exercise: Tell us which pIC50 value is on record for `N#Cc1c(-c2cccc(NC(=O)CCN)c2)cc(-c2ccc(Br)cc2O)nc1NC(=O)c1cccs1`
Solution: 7.72

Exercise: Please look at this molecule and report its pIC50: `CC(C)(CN)NC(=O)c1cccc(-c2cc(-c3ccccc3O)nc(NC(=O)c3ccco3)c2C#N)c1`
Solution: 7.82

Exercise: Report measured pIC50; entry is `COc1ccc(C(=O)Nc2nc(-c3ccccc3O)cc(-c3cccc(C(=O)NCCN)c3)c2C#N)cc1`
Solution: 7.51

Exercise: Please look at this molecule and report its pIC50: `CC(C)(CN)CNC(=O)c1cccc(-c2cc(-c3ccc(F)cc3O)nc(NC(=O)c3ccco3)c2C#N)c1`
Solution: 7.96

Exercise: Output pIC50 of `N#Cc1c(-c2cccc(C(=O)NCCN)c2)cc(-c2ccc(F)cc2O)nc1NC(=O)c1ccco1`
Solution: 8.10

We next turn to a different molecule, shown below.
Exercise: Look up pIC50 of `N#Cc1c(-c2cccc(CN)c2)cc(-c2ccccc2O)nc1NC(=O)c1cccs1` and report it.
Solution: 6.24
